Please respond with reported pIC50 for every item in the list.
Test system: 3T3-L1 cells
Test: Oil Red O staining, cellular lipid content in differentiating cells
Format: cell-based, mouse
Settings: Mus musculus, 3T3-L1; based on percentage of Oil Red O-stained; read-out: IC50 to suppress cellular lipid accumulation
Procedure: The mouse embryonic 3T3-L1 pre-adipocytes purchased from the American Type Culture Collection (ATCC, Manassas, VA, USA) were cultured at 37 °C with a 5% CO2 stream in a complete Dulbecco’s modified Eagle medium (DMEM) (Gibco, Gaithersburg, MA, USA) that contained 10% fetal bovine serum (FBS; Gibco, Gaithersburg, MA, USA), 1000 units mL^−1 of penicillin/streptomycin (Gibco, Gaithersburg, MA, USA), and 2 mM of L-glutamine (Gibco, Gaithersburg, MA, USA). […]
// scale note: pIC50 = -log10(conc_M); give the bare number

Query :: Need pIC50, item COc1ccc(CCc2cc(O)c(O)c(OC)c2)cc1 [Compound 3, 3,4-dihydroxy-5,4′-dimethoxybibenzyl]
Result :: 5.20

Query :: Need pIC50, item Oc1cc(O)cc(/C=C/c2ccc(O)cc2O)c1 [oxyresveratrol, reference compound]
Result :: 4.69

---

Please respond with reported viability at 48 h, 20 µM for every item in the list.
test: MTT cytotoxicity assay (cell viability); assay type: cell-based, mouse; conditions: mouse, 3T3-L1 pre-adipocytes, 20 µM, relative to vehicle control, read-out: percentage of cell viability
Numbers only; they are read as %.

Query :: Need viability at 48 h, 20 µM, item COc1ccc(CCc2cc(OC)c(O)c3c2C(Cc2ccc(OC)cc2)c2cc(O)c(O)c(OC)c2O3)cc1 (centres unmarked)
Result :: 61.3

Query :: Need viability at 48 h, 20 µM, item COc1ccc(CCc2cc(OC)c3c(c2)O[C@@H](c2cc(OC)c(O)c(OC)c2)[C@H](CO)O3)cc1
Result :: 61.3
